Assignment: determine reported log10(IC50) for the given compounds.
- assayed.system: human TRPV1 (Homo sapiens (Human), UniProt Q8NER1)
- Sequence (Q8NER1 whole entry): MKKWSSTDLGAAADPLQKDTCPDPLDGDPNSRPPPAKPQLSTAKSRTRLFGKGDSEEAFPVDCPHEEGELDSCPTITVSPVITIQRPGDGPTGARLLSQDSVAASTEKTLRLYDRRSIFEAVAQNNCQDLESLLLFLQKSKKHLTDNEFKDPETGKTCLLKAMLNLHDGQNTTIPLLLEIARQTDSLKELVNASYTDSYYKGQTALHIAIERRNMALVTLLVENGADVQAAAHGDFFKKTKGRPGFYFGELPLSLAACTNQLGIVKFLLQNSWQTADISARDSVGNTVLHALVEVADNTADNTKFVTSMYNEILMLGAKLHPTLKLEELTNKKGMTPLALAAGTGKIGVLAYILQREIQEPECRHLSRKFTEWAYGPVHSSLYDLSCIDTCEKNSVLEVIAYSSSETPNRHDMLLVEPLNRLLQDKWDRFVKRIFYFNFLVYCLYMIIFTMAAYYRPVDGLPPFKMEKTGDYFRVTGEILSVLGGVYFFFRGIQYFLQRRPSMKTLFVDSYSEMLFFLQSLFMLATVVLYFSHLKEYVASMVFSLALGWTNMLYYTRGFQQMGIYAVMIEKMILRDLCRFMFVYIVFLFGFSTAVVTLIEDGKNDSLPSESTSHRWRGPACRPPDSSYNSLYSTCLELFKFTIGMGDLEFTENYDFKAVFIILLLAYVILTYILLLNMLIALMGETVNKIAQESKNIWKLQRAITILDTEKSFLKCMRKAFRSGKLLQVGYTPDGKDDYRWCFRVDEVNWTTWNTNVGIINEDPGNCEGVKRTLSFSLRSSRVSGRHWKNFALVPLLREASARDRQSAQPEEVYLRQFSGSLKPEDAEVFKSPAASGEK
- assay.explanation: Capsaicin Activation Assay (intracellular Ca2+, FLIPR)
- test.context: recombinant HEK293 cells expressing hTRPV1, 50 nM capsaicin
// units: nM (pre-log); metric: IC50; scale: log10

Answered examples (4):
1) Cn1c(=O)ccc2c(NC(=O)N[C@@H]3C[C@](C)(C(F)(F)F)Oc4ccccc43)cccc21 [Example 90]; 1.04
2) CN1C(=O)CCc2ccc(NC(=O)N[C@@H]3CC(CF)(CF)Oc4c(F)cccc43)cc21 [Example 281]; 2.91
3) CN1C(=O)CCc2ccc(NC(=O)N[C@@H]3CC(CF)(CF)Oc4cc(Cl)ccc43)cc21 [Example 255]; 1.30
4) CCCC1(CCC)C[C@@H](NC(=O)Nc2ccc3c(c2)NC(=O)CO3)c2cc(F)ccc2O1 [Example 107]; 2.60

Report log10(IC50) for every entry below.
1. CCCC1(CCC)C[C@@H](NC(=O)Nc2ccc3c(c2)NC(=O)N(C)C3)c2cc(F)ccc2O1 [Example 185]
2. COCC1(COC)C[C@@H](NC(=O)Nc2ccc3c(c2)N(C)C(=O)CC3)c2cc(F)ccc2O1 [Example 279]
3. CN1C(=O)CCc2ccc(NC(=O)N[C@@H]3CC(C)(C)Oc4c3ccc(F)c4F)cc21 [Example 299]
4. CC1(C)C[C@@H](NC(=O)Nc2ccc3c(c2)NC(=O)CC3)c2cccc(C(F)(F)F)c2O1 [Example 218]

[2.32, 2.71, 1.73, 3.56]

----------
- assayed.system: human TRPV1 (Homo sapiens (Human), UniProt Q8NER1)
- assay.explanation: Capsaicin Activation Assay (intracellular Ca2+, FLIPR)
- test.context: recombinant HEK293 cells expressing hTRPV1, 50 nM capsaicin
Grouping key: IC50. Bins: small value: < 100 nM; mid value: ≥ 100 nM and < 200 nM; large value: ≥ 200 nM

A selection of reference data follows.
1. CN1C(=O)NCc2c(NC(=O)N[C@@H]3CC(CF)(CF)Oc4ccccc43)cccc21; large value
2. CN1C(=O)NCc2c(NC(=O)N[C@@H]3C[C@](C)(CF)Oc4ccccc43)cccc21; large value
3. CN1Cc2ccc(NC(=O)N[C@@H]3CCOc4cc(C(F)(F)F)ccc43)cc2NC1=O; mid value
4. O=C(Nc1ccc2c(c1)NC(=O)N(CCO)C2)N[C@@H]1CC(CF)(CF)Oc2cc(C(F)(F)F)ccc21; large value
5. CN1Cc2ccc(NC(=O)N[C@@H]3CCc4cc(C(C)(C)C)ccc43)cc2NC1=O; mid value

Any idea which band `C[C@]1(C(F)F)C[C@@H](NC(=O)Nc2ccc3c(c2)NC(=O)CC3)c2ccccc2O1` is in? mid value

Any idea which band `Cn1c(=O)ccc2c(NC(=O)N[C@@H]3C[C@](C)(CF)Oc4cc(Cl)ccc43)cccc21` is in? small value

Any idea which band `CN1Cc2ccc(NC(=O)N[C@@H]3CCc4cc(F)ccc43)cc2NC1=O` is in? large value

Any idea which band `CN1Cc2ccc(NC(=O)N[C@@H]3C[C@](C)(CF)Oc4cc(C(F)(F)F)ccc43)cc2NC1=O` is in? large value

Any idea which band `CN1C(=O)CCc2c(NC(=O)N[C@@H]3CC(CF)(CF)Oc4cc(Cl)ccc43)cccc21` is in? mid value
